- Test system: Ctenocephalides felis
- conditionContext: 24 h; data from laboratory 1
- Description: b) Ctenocephalides felis Adulticide Assay: C. felis Single Dose Screen Mortality of fleas was the primary endpoint in the assay. Fleas were considered dead if they didn't move or were on their sides and unable to walk or right themselves. […] The concentration chosen (1.26 μg/cm^2) was higher than that known to kill 90% of cat fleas (LC90) using the reference compound, permethrin. The test species was the cat flea (Ctenocephalides felis). […]
Define the label as Satisfied when C. felis Mortality (%) 24 h is strictly less than 60% and as Not satisfied in all remaining cases.

Please determine if CCCN(N=C(C)c1cc(Cl)ccc1NS(=O)(=O)C(F)(F)F)c1cccc(Cl)c1Cl [Compound 200] is below 60% in terms of C. felis Mortality (%) 24 h. Satisfied

Please determine if C/C(=N\N(C)c1nccc2ccccc12)c1cc(Cl)ccc1NS(=O)(=O)C(F)(F)F [Compound 209] is below 60% in terms of C. felis Mortality (%) 24 h. Satisfied

Please determine if CC(=NN(C)c1ccc2ccccc2n1)c1cc(Cl)ccc1NS(=O)(=O)C(F)(F)F [Compound 198] is below 60% in terms of C. felis Mortality (%) 24 h. Satisfied

Please determine if CCCN(N=C(C)c1cc(Cl)ccc1NS(=O)(=O)C(F)(F)F)c1ccccc1F [Compound 45] is below 60% in terms of C. felis Mortality (%) 24 h. Satisfied

Please determine if CC(=NN(C)C)c1cc(Cl)ccc1NS(=O)(=O)C(F)(F)F [Compound 113] is below 60% in terms of C. felis Mortality (%) 24 h. Not satisfied

Please determine if CC(=Nn1cccn1)c1cc(Cl)ccc1NS(=O)(=O)C(F)(F)F [Compound 185] is below 60% in terms of C. felis Mortality (%) 24 h. Satisfied

Please determine if CCC(=O)N(CCC#N)/N=C(\C)c1cc(Cl)ccc1NS(=O)(=O)C(F)(F)F [Compound 225] is below 60% in terms of C. felis Mortality (%) 24 h. Not satisfied

Please determine if CCOC(=O)NN=C(CC)c1cc(Cl)ccc1NS(=O)(=O)C(F)(F)F [Compound 88] is below 60% in terms of C. felis Mortality (%) 24 h. Satisfied

====

- System: Ctenocephalides felis
Short version: C. felis Mortality (%) 8 h at least 60% is label 1, less is label 0.

Example entries and their recorded answers appear below.
- recordSmiles: "CC(=NN(C)c1cccc(Cl)c1Cl)c1cc(Cl)ccc1NS(=O)(=O)C(F)(F)F"
  labelClass: "label 0"
- recordSmiles: "CCN(c1ccc(Cl)cc1C(C)=NN1CCCCC1)S(=O)(=O)C(F)(F)F"
  labelClass: "label 0"

Check this molecule for C. felis Mortality (%) 8 h at or above 60%: CC(=NN(C)c1cccc(C(F)(F)F)c1)c1cc(Cl)ccc1NS(=O)(=O)C(F)(F)F label 0

Check this molecule for C. felis Mortality (%) 8 h at or above 60%: CC(=O)N(CCC#N)/N=C(\C)c1cc(Cl)ccc1NS(=O)(=O)C(F)(F)F label 0

Check this molecule for C. felis Mortality (%) 8 h at or above 60%: CC(=NN1CC(=O)NC1=O)c1cc(Cl)ccc1NS(=O)(=O)C(F)(F)F label 1

Check this molecule for C. felis Mortality (%) 8 h at or above 60%: CCC(=NN(Cc1ccccc1)c1ccccc1)c1cc(Cl)ccc1NS(=O)(=O)C(F)(F)F label 1

====

- Test system: Ctenocephalides felis
- conditionContext: 8 h; data from laboratory 1
- Description: b) Ctenocephalides felis Adulticide Assay: C. felis Single Dose Screen Mortality of fleas was the primary endpoint in the assay. Fleas were considered dead if they didn't move or were on their sides and unable to walk or right themselves. […] The concentration chosen (1.26 μg/cm^2) was higher than that known to kill 90% of cat fleas (LC90) using the reference compound, permethrin. The test species was the cat flea (Ctenocephalides felis). […]
Listed below: C. felis Mortality (%) 8 h values for each entry.
Entry rule: numbers only, all in %.

State its C. felis Mortality (%) 8 h for this compound: CCC(=NN(CC)C1CCCCC1)c1cc(Cl)ccc1NS(=O)(=O)C(F)(F)F 5

State its C. felis Mortality (%) 8 h for this compound: C/C(=N\N1C(=O)NC(C)(C)C1=O)c1cc(Cl)ccc1NS(=O)(=O)C(F)(F)F 5

====

- Tested on: Ctenocephalides felis
- conditionContext: 24 h; data from laboratory 1
quantityName: C. felis Mortality (%) 24 h
Entry rule: numbers only, all in %.

- recordSmiles: "CC(=NN1CCCCC1)c1ccccc1NS(=O)(=O)C(F)(F)F"
  tgt: "Ctenocephalides felis"
  unitText: "%"
  C. felis Mortality (%) 24 h: 31
- recordSmiles: "CC(=Nn1c(C)nc2ccccc2c1=O)c1cc(Cl)ccc1NS(=O)(=O)C(F)(F)F"
  tgt: "Ctenocephalides felis"
  unitText: "%"
  C. felis Mortality (%) 24 h: 10
- recordSmiles: "CC(=NN(C)c1cc(Cl)ccc1Cl)c1cc(Cl)ccc1NS(=O)(=O)C(F)(F)F"
  tgt: "Ctenocephalides felis"
  unitText: "%"
  C. felis Mortality (%) 24 h: 75

Using Ctenocephalides felis as the test system, report measured C. felis Mortality (%) 24 h of COCN(c1ccc(Cl)cc1C(C)=NN1CCCCC1)S(=O)(=O)C(F)(F)F . 24

Using Ctenocephalides felis as the test system, report measured C. felis Mortality (%) 24 h of CC(=Nn1ncc2ccccc21)c1cc(Cl)ccc1NS(=O)(=O)C(F)(F)F . 9

Using Ctenocephalides felis as the test system, report measured C. felis Mortality (%) 24 h of CC(=NN1CCCCCC1)c1cc(Cl)ccc1NS(=O)(=O)C(F)(F)F . 23

Using Ctenocephalides felis as the test system, report measured C. felis Mortality (%) 24 h of CN(N=C(c1cc(Cl)ccc1NS(=O)(=O)C(F)(F)F)C1CCCCC1)c1ccccc1 . 14

Using Ctenocephalides felis as the test system, report measured C. felis Mortality (%) 24 h of CCN(N=C(C)c1cc(Cl)ccc1NS(=O)(=O)C(F)(F)F)c1ccc(C)cc1 . 90

====

Listed below: R. sanguineus Mortality (%) 24 h values for each entry.
- Test system: Rhipicephalus sanguineus
- measurementProtocol: Rapid screening protocol for topical application on brown dog ticks (% mortality)
- conditionContext: data from laboratory 2
Entry rule: numbers only, all in %.

Use these answered entries as a reference point.
- recordSmiles: "CC(=NN(c1cccc(F)c1)C(C)C)c1cc(Cl)ccc1NS(=O)(=O)C(F)(F)F"
  R. sanguineus Mortality (%) 24 h: 73
- recordSmiles: "CC(=NN(C)c1cc(Cl)cc(Cl)c1)c1cc(Cl)ccc1NS(=O)(=O)C(F)(F)F"
  R. sanguineus Mortality (%) 24 h: 95

# ---- query compound ----
State its R. sanguineus Mortality (%) 24 h for this compound: C/C(=N\N(C)C1CCCC1)c1cc(Cl)ccc1NS(=O)(=O)C(F)(F)F 98

====

- Test system: Ctenocephalides felis
- conditionContext: 8 h; data from laboratory 1
- Method: b) Ctenocephalides felis Adulticide Assay: C. felis Single Dose Screen Mortality of fleas was the primary endpoint in the assay. Fleas were considered dead if they didn't move or were on their sides and unable to walk or right themselves. […] The concentration chosen (1.26 μg/cm^2) was higher than that known to kill 90% of cat fleas (LC90) using the reference compound, permethrin. The test species was the cat flea (Ctenocephalides felis). […]
Listed below: C. felis Mortality (%) 8 h values for each entry.

Use these answered entries as a reference point.
- recordSmiles: "CC(=NNC(=O)c1ccccc1Cl)c1cc(Cl)ccc1NS(=O)(=O)C(F)(F)F"
  measuredValue: "2%"
- recordSmiles: "CCOC(=O)NN=C(C)c1cc(Cl)ccc1NS(=O)(=O)C(F)(F)F"
  measuredValue: "3%"

State its C. felis Mortality (%) 8 h for this molecule: CC(=NNC(=O)OC(C)(C)C)c1cc(Cl)ccc1NS(=O)(=O)C(F)(F)F 4%

State its C. felis Mortality (%) 8 h for this molecule: O=S(=O)(Nc1ccc(Cl)cc1C1=NN(c2cccc(Cl)c2)CC1)C(F)(F)F 12%

State its C. felis Mortality (%) 8 h for this molecule: CCN(N=C(C)c1cc(Cl)ccc1NS(=O)(=O)C(F)(F)F)C1CCCCC1 0%

State its C. felis Mortality (%) 8 h for this molecule: CC(=NN(c1ccc(Br)cc1)C(C)C)c1cc(Cl)ccc1NS(=O)(=O)C(F)(F)F 51%

====

- Tested on: Ctenocephalides felis
- conditionContext: 8 h; data from laboratory 1
Listed below: C. felis Mortality (%) 8 h values for each entry.
Entry rule: numbers only, all in %.

Use these answered entries as a reference point.
- molecule: "CC(=NN1CCCCC1)c1cccc(NS(=O)(=O)C(F)(F)F)c1 [Compound 161]"
  tgt: "Ctenocephalides felis"
  measuredValue: 7
- molecule: "C=CCN(N=C(C)c1cc(Cl)ccc1NS(=O)(=O)C(F)(F)F)c1ccc(Cl)cc1 [Compound 171]"
  tgt: "Ctenocephalides felis"
  measuredValue: 7

# ---- query molecule ----
Using Ctenocephalides felis as the test system, report measured C. felis Mortality (%) 8 h of CC(=NN(c1cc(Cl)ccc1Cl)C(C)C)c1cc(Cl)ccc1NS(=O)(=O)C(F)(F)F [Compound 144] . 7
